B1: TNNI2 (parent)
chain: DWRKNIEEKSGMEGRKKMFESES

Variants of: B1
ASSAY REMARKS: protein stability index of a GFP-peptide fusion (GPS, HEK-293T) (PSI 1-6); higher = more stable;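 further: lentivirally expressed fusions sorted by FACS into six bins by GFP to DsRed ratio, PSI derived from sequencing read proportions per bin multiplied by bin number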
APPLIED CONDITIONS: c terminus: native
Record form. Attribute: protein stability index. Fill in for each entry.
Number only, no unit.

// recorded protein stability index for N5Q : 2.72

// recorded protein stability index for K16H : 1.85

// recorded protein stability index for G14E : 1.38

// recorded protein stability index for G14N : 2.22

// recorded protein stability index for E22R : 1.58

// recorded protein stability index for E13N : 2.75

// recorded protein stability index for K17N : 2.56

// recorded protein stability index for K9W : 2.34

// recorded protein stability index for E13F : 1.73

// recorded protein stability index for D1W : 3.07

// recorded protein stability index for G14I : 1.6

// recorded protein stability index for E7A : 2.16

// recorded protein stability index for W2Y : 2.93

// recorded protein stability index for I6H : 2.12

// recorded protein stability index for I6Y : 1.88

// recorded protein stability index for K17A : 2.25

// recorded protein stability index for K9H : 2.4

// recorded protein stability index for E20Y : 3.81

// recorded protein stability index for R3Q : 2.84

// recorded protein stability index for K4C : 2.32

// recorded protein stability index for K9C : 1.84

// recorded protein stability index for D1I : 2.63

// recorded protein stability index for W2F : 2.55

// recorded protein stability index for E7H : 1.84

// recorded protein stability index for N5A : 3.79

// recorded protein stability index for M18I : 1.98

// recorded protein stability index for S10V : 1.02

// recorded protein stability index for S21N : 3.39

// recorded protein stability index for W2N : 2.25

// recorded protein stability index for E20M : 2.75

// recorded protein stability index for F19R : 4.97

// recorded protein stability index for R3L : 1.74

// recorded protein stability index for G14A : 1.43

// recorded protein stability index for G11R : 2.35

// recorded protein stability index for K4H : 2.62

// recorded protein stability index for M12T : 3.47

// recorded protein stability index for F19H : 3.76

// recorded protein stability index for E7V : 2.26

// recorded protein stability index for E7T : 2.82

// recorded protein stability index for W2S : 2.69

// recorded protein stability index for E8L : 2.47

// recorded protein stability index for E22D : 3.81

// recorded protein stability index for F19N : 5.46

// recorded protein stability index for E8H : 2.09

// recorded protein stability index for M18S : 4.36

// recorded protein stability index for K17H : 3.84
